# ASSAYED_TARGET: Sigma non-opioid intracellular receptor 1 (Rattus norvegicus)
# Sequence (Q9R0C9 whole entry): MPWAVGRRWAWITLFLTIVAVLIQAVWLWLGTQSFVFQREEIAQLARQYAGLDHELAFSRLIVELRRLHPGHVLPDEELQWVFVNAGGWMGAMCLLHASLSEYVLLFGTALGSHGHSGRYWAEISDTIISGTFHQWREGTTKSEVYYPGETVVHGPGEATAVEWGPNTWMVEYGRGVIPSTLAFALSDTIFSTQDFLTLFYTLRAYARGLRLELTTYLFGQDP
# ASSAY_EXPLANATION: Displacement of [3H](+)-pentazocine from Sigma1 receptor in rat liver homogenate
# Type: tissue-based
TEST_READOUT: pKi
Numbers only, as −log10 of the molar value.

Form field: pKi recorded for `O=c1sc2cc(CCCF)ccc2n1CCN1CCCCCC1` with Sigma non-opioid intracellular receptor 1 (Rattus norvegicus) (enter value)
9.02
